assayed system: Ba/F3 cells with EGFR WT (Homo sapiens)
Sequence (P00533 25-1210): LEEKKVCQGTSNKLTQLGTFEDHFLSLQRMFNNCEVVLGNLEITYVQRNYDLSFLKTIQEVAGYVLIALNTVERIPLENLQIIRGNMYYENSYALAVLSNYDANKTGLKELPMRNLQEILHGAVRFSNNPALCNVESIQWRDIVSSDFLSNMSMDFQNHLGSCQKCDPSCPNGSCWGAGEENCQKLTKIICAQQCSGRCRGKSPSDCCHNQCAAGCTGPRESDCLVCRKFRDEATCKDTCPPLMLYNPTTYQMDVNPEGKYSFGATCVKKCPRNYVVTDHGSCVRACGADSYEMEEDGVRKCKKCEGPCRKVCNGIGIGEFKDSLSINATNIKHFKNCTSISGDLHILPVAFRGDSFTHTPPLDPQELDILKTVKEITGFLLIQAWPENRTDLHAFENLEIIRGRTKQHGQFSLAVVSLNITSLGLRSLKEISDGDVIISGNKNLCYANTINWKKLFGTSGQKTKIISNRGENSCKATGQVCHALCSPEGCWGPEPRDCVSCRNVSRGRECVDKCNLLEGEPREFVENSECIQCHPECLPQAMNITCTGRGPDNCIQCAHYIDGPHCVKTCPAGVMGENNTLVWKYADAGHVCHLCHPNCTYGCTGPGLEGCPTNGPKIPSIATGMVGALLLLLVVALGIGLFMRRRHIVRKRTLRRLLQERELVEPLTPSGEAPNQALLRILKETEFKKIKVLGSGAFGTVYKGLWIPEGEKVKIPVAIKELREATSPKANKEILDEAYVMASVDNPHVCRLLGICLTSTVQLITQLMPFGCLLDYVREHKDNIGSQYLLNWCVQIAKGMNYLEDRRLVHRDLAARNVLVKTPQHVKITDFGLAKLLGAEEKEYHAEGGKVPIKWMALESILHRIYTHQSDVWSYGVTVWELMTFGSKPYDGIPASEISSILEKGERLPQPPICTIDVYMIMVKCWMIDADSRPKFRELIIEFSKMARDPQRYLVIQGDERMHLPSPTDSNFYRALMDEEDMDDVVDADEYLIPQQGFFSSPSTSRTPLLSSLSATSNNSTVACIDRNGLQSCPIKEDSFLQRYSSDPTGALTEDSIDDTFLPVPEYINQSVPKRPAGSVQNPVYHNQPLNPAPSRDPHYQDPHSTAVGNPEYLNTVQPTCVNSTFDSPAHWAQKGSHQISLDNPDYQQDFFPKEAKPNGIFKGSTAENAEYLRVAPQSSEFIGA
protocol description: EGFR activity: Ba/F3 cell viability (CellTiter-Glo, 72 h), EGFR WT
run conditions: read-out: BaF3 WT IC50
pIC50: −log10 of the molar value.
# pIC50 per record follows
observed property: pIC50

molecule="CC#CC(=O)N1CC[C@@]1(C)COc1cnccc1-c1[nH]c2c(c1Nc1cccc(F)c1OC)C(=O)NCC2 [compound 357]" assay_result="< 6.00"
molecule="C=CC(=O)N1CC(F)(F)C[C@H]1C#Cc1cnccc1-c1[nH]c2c(c1Nc1cccc(Cl)c1OC)C(=O)NCC2 [compound 520]" assay_result="> 7.00"
molecule="C=CC(=O)NC1(C#Cc2cnccc2-c2[nH]c3c(c2Nc2cccc(Cl)c2OC)C(=O)NCC3)CCN(C)CC1 [compound 411]" assay_result="< 6.00"
molecule="C=CC(=O)N1[C@H](C#Cc2cnccc2-c2[nH]c3c(c2Nc2cccc(Cl)c2OC)C(=O)NCC3)CC[C@@H]1C [compound 240]" assay_result="> 7.00"
molecule="COc1c(F)cccc1Nc1c(-c2ccncc2C#CC(C)(C)NC(=O)/C=C/CN[C@@H]2CCOC2)[nH]c2c1C(=O)NCC2 [compound 394]" assay_result="< 6.00"
molecule="COc1c(F)cccc1Nc1c(-c2ccncc2C#C[C@]2(C)COCCN2C(=O)/C=C/CN(C)C)[nH]c2c1C(=O)NCC2 [compound 631]" assay_result="6.00 to 7.00"
molecule="COc1c(F)cccc1Nc1c(-c2ccncc2OCc2ccncn2)[nH]c2c1C(=O)NCC2 [Compound 478]" assay_result="6.00 to 7.00"
molecule="CC#CC(=O)N1CC[C@@H]1COc1cnccc1-c1[nH]c2c(c1Nc1cc(F)cc(Cl)c1OC)C(=O)NCC2 [compound 346]" assay_result="6.00 to 7.00"
molecule="COc1c(F)cccc1Nc1c(-c2ccncc2C#CC2CCCO2)[nH]c2c1C(=O)NCC2 (single isomer, unassigned) [Compound 148b]" assay_result="< 6.00"
molecule="COc1c(Cl)cccc1Nc1c(-c2ccncc2C#C[C@]2(NC(=O)/C=C/CN(C)C)CCOC2)[nH]c2c1C(=O)NCC2 [compound 421]" assay_result="< 6.00"
molecule="C=CC(=O)N1CCC[C@]1(C)C#Cc1cnccc1-c1[nH]c2c(c1Nc1cccc(F)c1CC)C(=O)NCC2 [compound 305]" assay_result="6.00 to 7.00"
molecule="C=CC(=O)N[C@H](C#Cc1cnccc1-c1[nH]c2c(c1Nc1cccc(Cl)c1OC)C(=O)NCC2)CC [compound 581]" assay_result="6.00 to 7.00"
molecule="C=CC(=O)N1CC(C)(C)C[C@@H]1COc1cnccc1-c1[nH]c2c(c1Nc1cccc(Cl)c1OC)C(=O)NCC2 [compound 265]" assay_result="> 7.00"
molecule="Cc1c(F)cccc1Nc1c(-c2ccncc2C#CC(C)(C)NC(=O)/C=C/CN(C)C)[nH]c2c1C(=O)NCC2 [compound 449]" assay_result="6.00 to 7.00"
molecule="COc1c(F)cccc1Nc1c(-c2ccncc2C#CC(C)(C)NC(=O)C#CCN(C)C)[nH]c2c1C(=O)NCC2 [compound 465]" assay_result="6.00 to 7.00"
molecule="COCC#Cc1cnccc1-c1[nH]c2c(c1Nc1cccc(F)c1C)C(=O)NCC2 [compound 500]" assay_result="< 6.00"
molecule="CC#CC(=O)N1CC[C@@H]1COc1cnccc1-c1[nH]c2c(c1Nc1cccc(F)c1Cl)C(=O)NCC2 [compound 406]" assay_result="> 7.00"
molecule="C=CC(=O)N[C@]1(C#Cc2cnccc2-c2[nH]c3c(c2Nc2cccc(F)c2C)C(=O)NCC3)CCOC1 [compound 387]" assay_result="6.00 to 7.00"
molecule="CC#CC(=O)N1CC[C@@H]1COc1cnccc1-c1[nH]c2c(c1Nc1cc(F)cc(F)c1OC)C(=O)NCC2 [compound 347]" assay_result="6.00 to 7.00"
molecule="COc1ccc(C#Cc2cnccc2-c2[nH]c3c(c2Nc2cccc(F)c2C)C(=O)NCC3)cn1 [compound 502]" assay_result="< 6.00"
molecule="COc1c(Cl)cccc1Nc1c(-c2ccncc2C#C[C@@H]2CN(C)CCO2)[nH]c2c1C(=O)NCC2 [compound 496]" assay_result="< 6.00"
molecule="COc1c(F)cccc1Nc1c(-c2ccncc2OCc2nnc3n2CCC3)[nH]c2c1C(=O)NCC2 [Compound 131]" assay_result="< 6.00"

src = patent US20230364070A1
